- TESTED_SYSTEM: PAR2 (HT-29 cells, SLIGKV activation) (Homo sapiens, UniProt P55085)
- Construct: host or cells: HT-29 cells
- Sequence (P55085 26-397): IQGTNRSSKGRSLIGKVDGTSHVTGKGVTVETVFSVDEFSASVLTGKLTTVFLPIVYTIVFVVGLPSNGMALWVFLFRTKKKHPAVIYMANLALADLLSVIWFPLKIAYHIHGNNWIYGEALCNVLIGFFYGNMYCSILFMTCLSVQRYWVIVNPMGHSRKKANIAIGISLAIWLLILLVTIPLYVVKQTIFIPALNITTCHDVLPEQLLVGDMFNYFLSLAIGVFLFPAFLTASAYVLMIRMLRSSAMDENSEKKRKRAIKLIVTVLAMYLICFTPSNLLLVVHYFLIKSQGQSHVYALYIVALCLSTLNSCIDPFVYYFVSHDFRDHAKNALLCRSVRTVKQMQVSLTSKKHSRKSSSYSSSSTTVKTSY
- METHOD_SUMMARY: Ca FLIPR TETRA assay, ANTAGONIST mode, stimulation with 8 μM SLIGKV
- Type: cell-based
- CONDITION_DETAILS: HT-29 cells, antagonist mode, stimulation with 8 μM SLIGKV
Readings of log10(IC50) for the listed molecules
The common logarithm of IC50 in nM is what is listed.

Consider the worked cases shown below.
MOLECULE | DATA_VALUE
CC(C)(C)c1cc(C2CCC(F)(F)CC2)nn2cc(C(=O)N3CCN(c4c[nH]cn4)C(=O)C3(C)C)nc12 [Compound I-430] | 1.21
CC(C)(O)C(=O)N1CCN(C(=O)c2cn3nc(-c4ccc(F)cc4)cc(C(C)(C)C)c3n2)C(C)(C)C1 [Compound I-198] | 0.64
CC1(C(=O)O)CCC(C(=O)N2CCN(C(=O)c3cn4nc(-c5ccc(Cl)cc5)cc(C(C)(C)C)c4n3)C(C)(C)C2)CC1 (centres unmarked) [Compound I-534] | -1.10
CC(C)(C)c1cc(-c2ccc(F)cc2)nn2cc(C(=O)N3CCN(C(=O)c4ccccn4)CC3(C)C)nc12 [Compound I-284] | 0.00
CC(C)c1cc(-c2ccc(F)cc2)nn2cc(C(=O)N3CCN(C(=O)c4ccccn4)CC3(C)C)nc12 [Compound I-320] | 0.85

Can you look up the measured log10(IC50) of CC1(C)CN(C(=O)[C@H]2CC[C@@H](C(=O)O)CC2)CCN1C(=O)c1cn2nc(-c3ccc(F)cc3)cc(-c3ccc(F)cc3)c2n1 [Compound I-524] for me?
0.15

Can you look up the measured log10(IC50) of CC(C)c1cc(-c2ccc(F)c(Cl)c2)nn2cc(C(=O)N3CCN(C(=O)[C@H]4C[C@@H](O)C4)CC3(C)C)nc12 [Compound I-498] for me?
0.75

Can you look up the measured log10(IC50) of CC(C)c1cc(-c2ccc(C(F)(F)F)cc2)nn2cc(C(=O)N3CCN(C(=O)C(C)(C)O)CC3(C)C)nc12 [Compound I-215] for me?
1.08

Can you look up the measured log10(IC50) of Cc1cc(C(=O)N2CCN(C(=O)c3cn4nc(-c5ccc(C)c(F)c5)cc(C(C)C)c4n3)C(C)(C)C2)[nH]n1 [Compound I-335] for me?
-0.10

Can you look up the measured log10(IC50) of Cc1n[nH]c(C(=O)N2CCN(C(=O)c3cn4nc(-c5ccc(F)cc5)cc(C(C)C)c4n3)C(C)(C)C2)n1 [Compound I-475] for me?
0.58
